Each item that follows carries a reported % Binding retained on T-cells, RT.
- measured_on: T1, CD3 on primary human pan T cells (human, UniProt P07766 23-207)
- T1 construct: on cells it stands in the TCR/CD3 complex; also called Pan T-cells (CD3-positive); endogenous CD3
- procedure_details: flow cytometry, pan T-cells
measured_metric: % Binding retained on T-cells, RT (fraction)

{"binder": "CD3B2080 (scFv) scFv: QVQLVQSGAEVKKPGSSVKVSCKASGYTFTRSTMHWVRQAPGQGLEWIGYINPSSAYTNYAQKFQGRVTLTADKSTSTAYMELSSLRSEDTAVYYCASPQVHYDYNGFPYWGQGTLVTVSSGGSEGKSSGSGSESKSTGGSEIVLTQSPATLSASPGERVTLSCSASSSVSYMNWYQQKPGQSPRRWIYDSSKLASGVPARFSGSGSGRDYTLTISSLEPEDFAVYYCQQWSRNPPTFGGGTKVEIK", "quantitative_result": 1}
{"binder": "CD3B2064 (scFv) scFv: QVQLVQSGAEVKKPGSSVKVSCKASGYTFTRSTMHWVKQAPGQGLEWIGYINPSSAYTNYAQKFQGRVTLTADKSTSTAYMELSSLRSEDTAVYYCASPQVHYDYNGFPYWGQGTLVTVSSGGSEGKSSGSGSESKSTGGSEIVLTQSPATLSASPGERVTLSCSASSSVSYMNWYQQKPGQSPRRWIYDSSKLASGVPARFSGSGSGRDYTLTISSLEPEDFAVYYCQQWSRNPPTFGGGTKVEIK", "quantitative_result": 1}
